For each entry below, report its pIC50 value.
biological target: 3-phosphoshikimate 1-carboxyvinyltransferase (Escherichia coli K-12, UniProt P0A6D3)
Sequence (P0A6D3 whole entry): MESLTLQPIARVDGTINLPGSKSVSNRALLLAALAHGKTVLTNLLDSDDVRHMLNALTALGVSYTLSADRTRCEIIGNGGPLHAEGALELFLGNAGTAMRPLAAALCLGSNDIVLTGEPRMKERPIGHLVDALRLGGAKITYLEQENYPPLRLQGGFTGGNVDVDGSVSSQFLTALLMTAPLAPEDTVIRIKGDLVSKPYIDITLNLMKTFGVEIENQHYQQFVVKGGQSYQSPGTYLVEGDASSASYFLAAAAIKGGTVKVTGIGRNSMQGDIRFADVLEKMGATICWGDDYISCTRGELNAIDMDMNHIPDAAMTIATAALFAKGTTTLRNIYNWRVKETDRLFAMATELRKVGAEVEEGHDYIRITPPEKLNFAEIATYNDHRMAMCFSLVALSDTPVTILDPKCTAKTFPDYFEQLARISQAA
pIC50: −log10 of the molar value.

> print(dat)
                                   compound  quantitymeasured  testresult
1            O=C(O)C1=C/C(=C/P(=O)(O)O)CCC1             pIC50      < 1.05
2  C=C(O[C@@H]1CC(C(=O)O)=C[C@@H](O)[C@H]1O)C(=O)O             pIC50      < 1.05
3  O=C(O)C1=CC(OCP(=O)(O)O)CCC1 (stereo not drawn)             pIC50      < 1.05
4  O=C(CP(=O)(O)O)O[C@@H]1CC(C(=O)O)=C[C@@H](O)[C@H]1O             pIC50      < 1.05
5  O=C(O)C1=CC(OP(=O)(O)O)CCC1 (stereo not drawn)             pIC50        2.12

I'm hoping you can list pIC50 for every compound here, please.
1. O=C(O)C1=C/C(=C\P(=O)(O)O)CCC1
2. O=C(O)C1=CC(CP(=O)(O)O)CCC1 (stereo not drawn)
3. O=C(O)CO[C@@H]1CC(C(=O)O)=C[C@@H](OP(=O)(O)O)[C@H]1O

< 1.05
< 1.05
4.00
